Test system: Plasmodium falciparum
Assay: microbe, parasite or virus in culture
Details: Dd2, 72 h
Description: Antiplasmodial activity against chloroquine-resistant Plasmodium falciparum Dd2 infected in erythrocytes assessed as parasite growth inhibition after 72 hrs by SYBR green 1 dye-based fluorometric analysis
Threshold-based label: IC50 under 1000 nM gives Criterion met, IC50 not under 1000 nM gives Criterion not met.

Study these solved cases before continuing.
CCOC(=O)C1=C(Nc2ccc(Br)cc2C)SCC1=O: Criterion not met
O=C1CSC(Nc2ccc3ccccc3c2)=C1C(=O)NCC1CC1: Criterion not met
CCCOC(=O)C1=C(Nc2ccc(C)c(C)c2)SCC1=O: Criterion not met
CCOC(=O)C1=C(Nc2ccc(S(F)(F)(F)(F)F)cc2)OCC1=O: Criterion not met
CCOC(=O)C1=C(Nc2ccc(C)c(F)c2)SCC1=O: Criterion not met
CCOC(=O)C1=C(Nc2ccc(C(F)(F)F)cc2)OCC1=O: Criterion met
Cc1ccc(NC2=C(C(=O)NCC3CC3)C(=O)CS2)cc1C: Criterion not met
Cc1ccc(NC2=C(C(=O)O)C(=O)CS2)cc1C: Criterion not met

Input line: I wonder whether Cc1ccc(NC2=C(C(=O)OCC3CC3)C(=O)CS2)cc1C has IC50 below 1000 nM. Can you tell?
Output line: Criterion not met

Input line: Would you kindly verify if IC50 of CCOC(=O)C1=C(Nc2ccc(Cl)c(C(F)(F)F)c2)SCC1=O is strictly less than 1000 nM?
Output line: Criterion not met

Input line: Below 1000 nM on IC50? Entry CCOC(=O)C1=C(Nc2ccc3cc4ccccc4cc3c2)SCC1=O
Output line: Criterion not met

Input line: Report whether reported IC50 is lower than 1000 nM (strictly) for CCCCOC(=O)C1=C(Nc2ccc(C)c(C)c2)SCC1=O
Output line: Criterion met

Input line: Just wondering, is IC50 of Cc1ccc(NC2=C(C(=O)NC3CC3)C(=O)CS2)cc1C below 1000 nM?
Output line: Criterion not met

Input line: Please determine if Cc1ccc(NC2=CC(=O)CS2)cc1C is below 1000 nM in terms of IC50.
Output line: Criterion not met

Input line: Hello, is IC50 of the following molecule strictly smaller than 1000 nM? CCOC(=O)C1=C(Nc2cnc3ccccc3c2)OCC1=O
Output line: Criterion met

Input line: Is IC50 strictly under 1000 nM for the entry Cc1ccc(NC2=C(C(N)=O)C(=O)CS2)cc1C ?
Output line: Criterion not met

Input line: Record CCCNC(=O)C1=C(Nc2ccc3ccccc3c2)SCC1=O : is its IC50 strictly below 1000 nM?
Output line: Criterion not met

Input line: Please let me know if CCOC(=O)C1=C(Nc2ccc(Br)c(C(F)(F)F)c2)SCC1=O shows IC50 below 1000 nM.
Output line: Criterion not met

Input line: I'd appreciate it if you could check whether CCNC(=O)C1=C(Nc2ccc(C)c(C)c2)SCC1=O has IC50 smaller than 1000 nM.
Output line: Criterion not met

Input line: For this molecule, is IC50 lower than 1000 nM? CCCNC(=O)C1=C(Nc2ccc(C)c(C)c2)SCC1=O
Output line: Criterion not met

Input line: Determine whether this molecule shows IC50 lower than 1000 nM (ties excluded): CCOC(=O)C1=C(Nc2ccc(Cl)cc2)SCC1=O
Output line: Criterion not met
